For each entry below, report its isoTOP-ABPP ratio (R) at liganded lysine P13639_K318 value.
molecular target: EEF2 Elongation factor 2 (Homo sapiens, UniProt P13639); construct: isoTOP-ABPP experiments performed in cell lysates (in vitro); endogenous in cells; host or cells: soluble proteome of human cancer cell lines (MDA-MB-231; Ramos and Jurkat also prepared); experiment: competitive isoTOP-ABPP; assay type: binding; settings: 50 uM, in vitro, sol, 231

Q) Note isoTOP-ABPP ratio (R) at liganded lysine P13639_K318 for the compound shown: "O=C(CCc1coc2cc(F)ccc2c1=O)Oc1ccc([N+](=O)[O-])cc1[N+](=O)[O-]"
A) 1.0

Q) Note isoTOP-ABPP ratio (R) at liganded lysine P13639_K318 for the compound shown: "O=C(Oc1ccc([N+](=O)[O-])cc1[N+](=O)[O-])c1ccc2ccccc2n1"
A) 1.1

Q) Note isoTOP-ABPP ratio (R) at liganded lysine P13639_K318 for the compound shown: "O=C(Oc1ccc([N+](=O)[O-])cc1[N+](=O)[O-])c1ccc(-c2ccccc2)cc1"
A) 1.0

Q) Note isoTOP-ABPP ratio (R) at liganded lysine P13639_K318 for the compound shown: "O=C(CC12CC3CC(CC(C3)C1)C2)Oc1ccc([N+](=O)[O-])cc1[N+](=O)[O-]"
A) 0.9

Q) Note isoTOP-ABPP ratio (R) at liganded lysine P13639_K318 for the compound shown: "CC(C)(C)OC(=O)NCCCC(=O)Oc1ccc([N+](=O)[O-])cc1[N+](=O)[O-]"
A) 1.1

---

For each entry below, report its isoTOP-ABPP ratio (R) at liganded lysine Q969Y2_K492 value.
molecular target: GTPBP3 tRNA modification GTPase GTPBP3, mitochondrial (Homo sapiens, UniProt Q969Y2); construct: isoTOP-ABPP experiments performed in cell lysates (in vitro); endogenous in cells; host or cells: soluble proteome of human cancer cell lines (MDA-MB-231; Ramos and Jurkat also prepared); experiment: competitive isoTOP-ABPP; format: binding; settings: 50 uM, in vitro, sol, 231
Sequence (Q969Y2 21-492): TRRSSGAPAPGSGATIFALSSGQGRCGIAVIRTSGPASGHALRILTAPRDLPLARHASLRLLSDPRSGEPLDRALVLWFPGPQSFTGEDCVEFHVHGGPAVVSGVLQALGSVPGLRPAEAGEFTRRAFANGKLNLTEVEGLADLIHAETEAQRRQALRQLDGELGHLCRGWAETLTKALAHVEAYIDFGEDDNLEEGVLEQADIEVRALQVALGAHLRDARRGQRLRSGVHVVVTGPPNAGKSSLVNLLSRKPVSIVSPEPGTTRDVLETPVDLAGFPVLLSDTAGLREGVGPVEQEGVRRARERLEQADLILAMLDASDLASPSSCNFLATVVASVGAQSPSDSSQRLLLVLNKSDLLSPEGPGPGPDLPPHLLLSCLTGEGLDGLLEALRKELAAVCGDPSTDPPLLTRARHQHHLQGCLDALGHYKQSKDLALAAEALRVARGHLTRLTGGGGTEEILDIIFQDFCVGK
// no unit string in output, number only

Q) Write down the reported isoTOP-ABPP ratio (R) at liganded lysine Q969Y2_K492 (system: GTPBP3 tRNA modification GTPase GTPBP3, mitochondrial (Homo sapiens, UniProt Q969Y2)) of "O=C(Oc1ccc([N+](=O)[O-])cc1[N+](=O)[O-])c1ccc(-c2ccccc2)cc1"
A) 1.2

Q) Write down the reported isoTOP-ABPP ratio (R) at liganded lysine Q969Y2_K492 (system: GTPBP3 tRNA modification GTPase GTPBP3, mitochondrial (Homo sapiens, UniProt Q969Y2)) of "O=C(Oc1ccc([N+](=O)[O-])cc1[N+](=O)[O-])c1ccccc1Nc1cccc(C(F)(F)F)c1"
A) 0.6

Q) Write down the reported isoTOP-ABPP ratio (R) at liganded lysine Q969Y2_K492 (system: GTPBP3 tRNA modification GTPase GTPBP3, mitochondrial (Homo sapiens, UniProt Q969Y2)) of O=C(Oc1ccc([N+](=O)[O-])cc1[N+](=O)[O-])C(c1ccccc1)(c1ccccc1)c1ccccc1 [fragment 42, 2,4-Dinitrophenyl 2,2,2-triphenylacetate]
A) 0.9

---

target: ENOPH1 Enolase-phosphatase E1 (Homo sapiens, UniProt Q9UHY7); construct: endogenous in cells; host or cells: MDA-MB-231 (soluble fraction of lysate); assay: competitive isoTOP-ABPP; assay type: binding; details: 50 uM, in vitro, sol, 231
Sequence (Q9UHY7 whole entry): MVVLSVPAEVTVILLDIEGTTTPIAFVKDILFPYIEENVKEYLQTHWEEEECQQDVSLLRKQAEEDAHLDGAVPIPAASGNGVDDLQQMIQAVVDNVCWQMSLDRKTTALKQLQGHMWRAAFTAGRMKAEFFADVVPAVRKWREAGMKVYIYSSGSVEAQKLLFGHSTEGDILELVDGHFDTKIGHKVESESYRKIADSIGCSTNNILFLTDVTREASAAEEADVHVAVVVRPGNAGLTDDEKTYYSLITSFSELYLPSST
Measured Parameter: isoTOP-ABPP ratio (R) at liganded lysine Q9UHY7_K111

Q) Note isoTOP-ABPP ratio (R) at liganded lysine Q9UHY7_K111 for the compound shown: O=C(Oc1ccc([N+](=O)[O-])cc1[N+](=O)[O-])c1ccc(Oc2ccccc2)cc1 [fragment 39, 2,4-Dinitrophenyl 4-phenoxybenzoate]
A) 0.8

Q) Note isoTOP-ABPP ratio (R) at liganded lysine Q9UHY7_K111 for the compound shown: "O=C(CC12CC3CC(CC(C3)C1)C2)Oc1ccc([N+](=O)[O-])cc1[N+](=O)[O-]"
A) 1.1

Q) Note isoTOP-ABPP ratio (R) at liganded lysine Q9UHY7_K111 for the compound shown: "CC(C)(C)OC(=O)NCCCC(=O)Oc1ccc([N+](=O)[O-])cc1[N+](=O)[O-]"
A) 1.1

---

For each entry below, report its isoTOP-ABPP ratio, lysine Q13011_K112 value.
molecular target: ECH1 Delta(3,5)-Delta(2,4)-dienoyl-CoA isomerase, mitochondrial (Homo sapiens, UniProt Q13011); construct: isoTOP-ABPP experiments performed in cell lysates (in vitro); endogenous in cells; host or cells: soluble proteome of human cancer cell lines (MDA-MB-231, Ramos, Jurkat); test: competitive isoTOP-ABPP; assay type: binding; details: 50 uM_231_sol_in vitro
Sequence (Q13011 34-328): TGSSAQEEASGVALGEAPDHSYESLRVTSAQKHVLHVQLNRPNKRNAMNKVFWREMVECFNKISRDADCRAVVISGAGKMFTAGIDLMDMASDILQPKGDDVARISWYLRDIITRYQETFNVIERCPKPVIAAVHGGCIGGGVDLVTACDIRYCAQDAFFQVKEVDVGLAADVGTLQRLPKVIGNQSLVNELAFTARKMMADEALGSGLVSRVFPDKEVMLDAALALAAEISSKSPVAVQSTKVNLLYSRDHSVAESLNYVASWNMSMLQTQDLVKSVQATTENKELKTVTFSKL
// no unit string in output, number only

Q) Note isoTOP-ABPP ratio, lysine Q13011_K112 for the compound shown: O=C(ON1C(=O)CCC1=O)c1cc(C(F)(F)F)cc(C(F)(F)F)c1 [fragment 46]
A) 0.8

Q) Note isoTOP-ABPP ratio, lysine Q13011_K112 for the compound shown: O=C(CCc1ccc2c(c1)OCO2)Oc1ccc([N+](=O)[O-])cc1[N+](=O)[O-] [fragment 45]
A) 1.0

Q) Note isoTOP-ABPP ratio, lysine Q13011_K112 for the compound shown: NC(=O)c1cc(C(F)(F)F)cc(C(F)(F)F)c1 [fragment 51, reference compound]
A) 1.0

---

target: KPNA2 Importin subunit alpha-2 (Homo sapiens, UniProt P52292); construct: isoTOP-ABPP experiments performed in cell lysates (in vitro); endogenous in cells; host or cells: soluble proteome of human cancer cell lines (MDA-MB-231, Ramos, Jurkat); experiment: competitive isoTOP-ABPP; type: binding; details: 50 uM, in vitro, sol, 231
Measured Parameter: isoTOP-ABPP ratio (R) at liganded lysine P52292_K459
// no unit string in output, number only

Q) Note isoTOP-ABPP ratio (R) at liganded lysine P52292_K459 for the compound shown: O=C(Oc1ccc([N+](=O)[O-])cc1[N+](=O)[O-])c1ccc2ccccc2n1 [fragment 35]
A) 1.3

Q) Note isoTOP-ABPP ratio (R) at liganded lysine P52292_K459 for the compound shown: O=C(Oc1ccc([N+](=O)[O-])cc1[N+](=O)[O-])C(c1ccccc1)(c1ccccc1)c1ccccc1 [fragment 42, 2,4-Dinitrophenyl 2,2,2-triphenylacetate]
A) 0.9

Q) Note isoTOP-ABPP ratio (R) at liganded lysine P52292_K459 for the compound shown: CC(=O)Oc1ccc([N+](=O)[O-])cc1[N+](=O)[O-] [fragment 43, 2,4-Dinitrophenyl acetate]
A) 2.6

Q) Note isoTOP-ABPP ratio (R) at liganded lysine P52292_K459 for the compound shown: O=C(Oc1ccc([N+](=O)[O-])cc1[N+](=O)[O-])C1CCN(C(=O)OCc2ccccc2)CC1 [fragment 34]
A) 1.0

---

For each entry below, report its isoTOP-ABPP ratio (R) at liganded lysine Q13033_K755 value.
Target: STRN3 Striatin-3 (Homo sapiens, UniProt Q13033)
Construct: isoTOP-ABPP experiments performed in cell lysates (in vitro); endogenous in cells; host or cells: soluble proteome of human cancer cell lines (MDA-MB-231, Ramos, Jurkat)
Sequence (Q13033 1-797): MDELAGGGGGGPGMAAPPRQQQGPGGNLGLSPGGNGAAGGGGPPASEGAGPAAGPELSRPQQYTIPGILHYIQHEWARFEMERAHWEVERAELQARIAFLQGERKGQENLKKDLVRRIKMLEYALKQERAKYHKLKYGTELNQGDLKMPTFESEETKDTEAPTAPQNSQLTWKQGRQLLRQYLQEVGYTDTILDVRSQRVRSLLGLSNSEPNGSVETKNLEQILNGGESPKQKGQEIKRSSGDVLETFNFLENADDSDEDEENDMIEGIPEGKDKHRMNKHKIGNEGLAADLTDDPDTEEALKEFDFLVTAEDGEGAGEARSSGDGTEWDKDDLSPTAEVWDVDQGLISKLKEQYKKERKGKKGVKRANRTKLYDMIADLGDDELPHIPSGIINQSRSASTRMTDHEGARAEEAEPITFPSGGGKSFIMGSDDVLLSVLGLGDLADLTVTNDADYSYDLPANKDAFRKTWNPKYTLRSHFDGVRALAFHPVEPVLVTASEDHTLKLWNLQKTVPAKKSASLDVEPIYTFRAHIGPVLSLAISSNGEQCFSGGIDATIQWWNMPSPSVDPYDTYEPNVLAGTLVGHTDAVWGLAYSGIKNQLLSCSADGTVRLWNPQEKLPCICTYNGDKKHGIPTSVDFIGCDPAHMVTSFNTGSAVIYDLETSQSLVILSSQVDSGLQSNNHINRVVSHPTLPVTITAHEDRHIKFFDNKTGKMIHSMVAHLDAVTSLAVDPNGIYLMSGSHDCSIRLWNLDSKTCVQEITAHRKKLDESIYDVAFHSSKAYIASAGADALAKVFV
Assay: competitive isoTOP-ABPP
Type: binding
Conditions: 50 uM, in vitro, sol, 231
// no unit string in output, number only

Q) Note isoTOP-ABPP ratio (R) at liganded lysine Q13033_K755 for the compound shown: O=C(Oc1ccc([N+](=O)[O-])cc1[N+](=O)[O-])C(c1ccccc1)(c1ccccc1)c1ccccc1 [fragment 42, 2,4-Dinitrophenyl 2,2,2-triphenylacetate]
A) 0.9

Q) Note isoTOP-ABPP ratio (R) at liganded lysine Q13033_K755 for the compound shown: O=C(Oc1ccc([N+](=O)[O-])cc1[N+](=O)[O-])c1ccc(Oc2ccccc2)cc1 [fragment 39, 2,4-Dinitrophenyl 4-phenoxybenzoate]
A) 0.9

Q) Note isoTOP-ABPP ratio (R) at liganded lysine Q13033_K755 for the compound shown: "O=C(CC12CC3CC(CC(C3)C1)C2)Oc1ccc([N+](=O)[O-])cc1[N+](=O)[O-]"
A) 0.9
